Assay: Cytotoxicity, microtetrazolium test (MTT)
Details: dog, MDCK cells, CC50 (MDCK), mean ±SD
Structures can show the parent of a compound that is named as a salt.
Entries annotated with measured log10 CC50 at 48 h
parameter-measured: log10 CC50 at 48 h (log10 of the value in µg/mL)

{"compound": "COC(=O)c1c(N(Cc2ccc(F)cc2)C(C)=O)sc2cc(O)ccc12 [Example 28]", "log10 CC50 at 48 h": 2.38}
{"compound": "CC(=O)N(Cc1ccccc1)c1sc2cc(O)ccc2c1C(=O)OC(C)C [Example 8]", "log10 CC50 at 48 h": 1.14}
{"compound": "COC(=O)c1c(N(Cc2ccccc2F)C(C)=O)sc2c(CN(C)C)c(O)ccc12 [Example 52]", "log10 CC50 at 48 h": 2.26}
{"compound": "COC(=O)c1c(N(Cc2ccc(C(C)C)cc2)C(C)=O)sc2c(Cl)c(O)ccc12 [Example 41]", "log10 CC50 at 48 h": 0.70}
{"compound": "CC(=O)N(Cc1ccccc1)c1sc2cc(O)ccc2c1C#N [Example 47]", "log10 CC50 at 48 h": 1.23}
{"compound": "COC(=O)c1c(N(Cc2ccc(C(F)(F)F)cc2)C(C)=O)sc2c(Cl)c(O)ccc12 [Example 21]", "log10 CC50 at 48 h": 0.75}
{"compound": "CC(=O)N(Cc1ccccc1)c1sc2c(Cl)c(O)ccc2c1C(=O)N1CCCCC1 [Example 82]", "log10 CC50 at 48 h": 1.21}
{"compound": "CC(=O)N(Cc1ccccc1)c1sc2c(Cl)c(O)ccc2c1C(=O)OC(C)C [Example 7]", "log10 CC50 at 48 h": 0.34}
{"compound": "COC(=O)c1c(N(Cc2ccccc2)C(C)=O)sc2cc(O)ccc12 [Example 4]", "log10 CC50 at 48 h": 2.30}
{"compound": "CCCNC(=O)c1c(N(Cc2ccccc2)C(C)=O)sc2cc(O)ccc12 [Example 80]", "log10 CC50 at 48 h": 2.38}
{"compound": "COC(=O)c1c(N(Cc2ccccc2)C(C)=O)sc2c(CN3CCN(C)CC3)c(O)ccc12 [Example 65, hydrochloride]", "log10 CC50 at 48 h": 1.27}

----------
{"smiles-representation": "COC(=O)c1c(N(Cc2cccc3ccccc23)C(C)=O)sc2c(Cl)c(O)ccc12", "melting point": "210 to 212 °C"}
{"smiles-representation": "COC(=O)c1c(N(Cc2ccccc2C(F)(F)F)C(C)=O)sc2c(CN(C)C)c(O)ccc12", "melting point": "184 to 188 °C"}
{"smiles-representation": "CCOC(=O)c1c(N(Cc2ccccc2)C(C)=O)sc2c(Cl)c(O)ccc12", "melting point": "151 to 155 °C"}
{"smiles-representation": "COC(=O)c1c(N(Cc2ccc(C)cc2)C(C)=O)sc2c(Cl)c(O)ccc12", "melting point": "195 to 197 °C"}
{"smiles-representation": "COC(=O)c1c(N(Cc2ccccc2Cl)C(C)=O)sc2c(Cl)c(O)ccc12", "melting point": "229 to 233 °C"}

----------
Entries annotated with measured melting point
parameter-measured: melting point

{"smiles-representation": "CC(=O)N(Cc1ccccc1)c1sc2cc(O)ccc2c1C(N)=O", "value-reported": "110 to 115 °C"}
{"smiles-representation": "COC(=O)c1c(N(Cc2ccccc2C)C(C)=O)sc2c(CN(C)C)c(O)ccc12", "value-reported": "155 to 160 °C"}
{"smiles-representation": "CNC(=O)c1c(N(Cc2ccccc2)C(C)=O)sc2c(CN(C)C)c(O)ccc12", "value-reported": "145 to 147 °C"}
{"smiles-representation": "CC(=O)N(Cc1ccc(F)cc1F)c1sc2c(Cl)c(O)ccc2c1C(=O)O", "value-reported": "238 to 242 °C"}
{"smiles-representation": "COC(=O)c1c(N(CCc2ccccc2)C(C)=O)sc2c(Cl)c(O)ccc12", "value-reported": "150 to 155 °C"}
